# protocol.text: Phase 1 multiple escalating dose study, QD intravenous infusion for 14 days, safety and pharmacokinetics
# Assay type: in vivo, human
# measurement.parameters: human, whole blood; 400 μg QD IV infusion, Day 14, blood, secondary predicted parameter
# Procedure: The present study was designed to evaluate the pharmacokinetics of zotarolimus following multiple dosing and to assess its safety while maximizing systemic exposure of healthy subjects. […] Phase 1, multiple-escalating dose, double-blind, placebo-controlled, randomized study. […] Blood and urine zotarolimus concentrations were determined using a validated LC/MS/MS method. Pharmacokinetic parameters were determined by compartmental analysis. […] Fraction of drug eliminated in urine was determined. […]

molecule | unit.symbol | AUC
CO[C@H]1C[C@@H]2CC[C@@H](C)[C@@](O)(O2)C(=O)C(=O)N2CCCC[C@H]2C(=O)O[C@H]([C@H](C)C[C@@H]2CC[C@H](n3cnnn3)[C@H](OC)C2)CC(=O)[C@H](C)/C=C(\C)[C@@H](O)[C@@H](OC)C(=O)[C@H](C)C[C@H](C)/C=C/C=C/C=C/1C | ng·h/mL | 104

Attribution: patent US8394398B2
